Every entry's value here was drawn from the supplement of paper PMC6555819.

System: PXR:RXRa (NR concentration 270 nM, RXRa partner concentration 90 nM)
Assay: PBM binding z-score (relative to random genomic background probes); higher = stronger binding; sequences stand for … in GC…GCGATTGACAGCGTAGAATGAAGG
reported-property: PBM binding z-score

1) TAGCCTAGGTCATTCAGGGGCCACTATAGAAAGC
3.08
2) ATCGAAAGGTCTAAGGTGAGTATACCCACCCGAA
0.515
3) TTACCAAGGTGAAAGGTCGTTGCTGCACGCCTTG
3.88
4) TAGCCTAGTTCATGCGGGCCAGTATAGTGTCGGC
0.59
5) CGTCCAAGGACAATGCTAGGTCAGTGAAAGCATT
0.242
6) AAAACAGGGTCATCGTAGGCCAGAGTACGCACAG
5.51
7) CGAACTAGGTCAAGGACAGTAAATCTCCGCACGC
1.1
8) TCTAGTTGGTCACGGAGGACACACACGACGGGTA
0.558
9) CGAACTAGGTCGTCCAGGACAGTGAATACATTGA
0.256
10) CGAACGAGGTCATGAGTTGATAGCAAATGCCGAT
5.17
11) TCTCGGAGGACACCAAAGGTCAGAGCTCGACATC
4.41
12) CCTAGCAGGCCAATCTAGGTCACTCAAGGCTTGA
1.51
13) CCTTACGGGTTACTCCAGGTTATAGCATCGGAGT
2.52
14) ACTCGGAGGACAAAGGTCAGGGCTACGCCAGTGA
4.18
15) AGAATGAGGTCAAGATCAGGGAAACAGAATACAT
4.67
16) TAGCCTAGGTCATGGGCCAGTGTACCACGCGAAC
1.6
17) CCGAATAGGTTACGAGGGGGCATTCAGTGCGAAT
5.5
18) AGAATGAGGTTAAGTTCAGGGAAACAGAATACAT
3.31
19) CCTGCGAGGTCATGGTCAGCTAATCTACAGTATG
5.39
20) AACGAAAGGTCGAAGGTGAGTATACCCACCCGAA
3
21) AGAATGAGGTCATTAAGATCAGGGAATTGCGGTC
5.46
22) CGTCCAAGGTCAATGCTAGATCAGTGAAAGCATT
3.36
23) CCTCGGAGGACAACAGGAGGTCATAGCTGCCAGA
3.72
24) CGTCAAAGGTCAGCAGGTCAGTGAAAGCGACGTG
5.39
25) TCTAGTTGGTCACGGAGGTCCCACACGACGGGTA
0.138
26) CGTCAAAGGTCAAGGTAACGTAACAGAAAGCAGC
5.33
